- System: Hepatotoxicity
- Assay overview: FDA HLAED, serum glutamic pyruvic transaminase (SGPT) increase
- Test context: human
Measured quantity: SGPT Increase - Activity Score

See these solved cases before continuing.
- Compound: "O=C(O)CCCCCCCC(=O)O"
  SGPT Increase - Activity Score: "Inactive"
- Compound: "CCOC(=O)[C@H](CCc1ccccc1)N[C@H]1CCc2ccccc2N(CC(=O)O)C1=O"
  SGPT Increase - Activity Score: "Inactive"
- Compound: "CCCCC(=O)O[C@H]1CC[C@H]2[C@@H]3CCc4cc(O)ccc4[C@H]3CC[C@]12C [ESTRADIOL VALERATE]"
  SGPT Increase - Activity Score: "Inactive"
- Compound: "CCOC(=O)C1=C(C)NC(C)=C(C(=O)OC)C1c1cccc(Cl)c1Cl (centres undefined)"
  SGPT Increase - Activity Score: "Inactive"
- Compound: "C#CCN(C)[C@H](C)Cc1ccccc1"
  SGPT Increase - Activity Score: "Inactive"

Answer for every listed entry: what is its SGPT Increase - Activity Score? The entries follow.
1. COc1cc(N)c(Cl)cc1C(=O)NC1CCN(CCCOc2ccc(F)cc2)CC1OC (centres undefined) [CISAPRIDE]
2. CC(C)c1ccc2oc3nc(N)c(C(=O)O)cc3c(=O)c2c1

1. Inactive
2. Inactive

For the compound CCCCNc1cc(C(=O)O)cc(S(N)(=O)=O)c1Oc1ccccc1 [BUMETANIDE] , report SGPT Increase - Activity Score.
Inactive
